- System Name: ROCK1 (Homo sapiens (Human), UniProt Q13464)
- Sequence (Q13464 whole entry): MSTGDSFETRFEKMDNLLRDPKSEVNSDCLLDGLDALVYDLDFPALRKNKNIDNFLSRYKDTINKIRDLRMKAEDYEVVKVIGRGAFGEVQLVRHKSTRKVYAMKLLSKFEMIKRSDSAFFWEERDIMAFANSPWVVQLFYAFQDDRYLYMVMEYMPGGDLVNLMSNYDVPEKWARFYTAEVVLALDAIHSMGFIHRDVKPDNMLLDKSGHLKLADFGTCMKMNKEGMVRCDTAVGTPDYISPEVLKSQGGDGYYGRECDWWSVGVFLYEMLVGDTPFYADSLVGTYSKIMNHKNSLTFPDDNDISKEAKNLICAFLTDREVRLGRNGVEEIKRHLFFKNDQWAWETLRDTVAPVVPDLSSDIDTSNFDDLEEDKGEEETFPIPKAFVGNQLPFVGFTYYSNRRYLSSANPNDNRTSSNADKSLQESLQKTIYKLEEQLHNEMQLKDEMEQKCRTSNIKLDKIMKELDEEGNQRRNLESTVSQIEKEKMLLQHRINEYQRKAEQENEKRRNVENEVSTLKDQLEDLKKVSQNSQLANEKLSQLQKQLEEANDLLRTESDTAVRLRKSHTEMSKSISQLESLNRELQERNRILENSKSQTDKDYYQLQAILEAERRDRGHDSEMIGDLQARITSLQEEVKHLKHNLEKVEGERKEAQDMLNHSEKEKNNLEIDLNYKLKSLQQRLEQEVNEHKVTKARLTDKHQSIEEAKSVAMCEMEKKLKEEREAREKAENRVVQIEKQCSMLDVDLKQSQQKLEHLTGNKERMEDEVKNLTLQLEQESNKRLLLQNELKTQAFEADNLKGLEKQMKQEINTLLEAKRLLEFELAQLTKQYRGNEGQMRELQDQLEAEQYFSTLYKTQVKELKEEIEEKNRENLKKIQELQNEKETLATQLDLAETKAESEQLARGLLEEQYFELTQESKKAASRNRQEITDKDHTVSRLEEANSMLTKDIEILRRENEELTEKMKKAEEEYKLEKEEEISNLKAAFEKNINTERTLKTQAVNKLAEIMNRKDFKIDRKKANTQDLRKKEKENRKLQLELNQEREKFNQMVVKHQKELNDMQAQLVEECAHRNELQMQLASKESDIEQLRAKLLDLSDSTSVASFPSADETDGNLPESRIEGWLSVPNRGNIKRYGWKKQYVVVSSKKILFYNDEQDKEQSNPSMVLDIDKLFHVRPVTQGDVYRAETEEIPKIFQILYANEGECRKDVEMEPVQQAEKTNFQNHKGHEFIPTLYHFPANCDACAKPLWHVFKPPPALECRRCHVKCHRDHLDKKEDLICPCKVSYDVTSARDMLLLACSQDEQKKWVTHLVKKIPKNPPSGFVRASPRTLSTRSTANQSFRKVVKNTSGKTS
- Protocol Details: Z'Lyte assay, ROCK1 inhibition at a single concentration
- Assay type: biochemical
- Condition Label: read-out: % inhibition (ROCK1) 1 uM, 1 uM
Assay Readout: inhibition at 1 µM (%)
Number in %, nothing else.

Example entries and their recorded answers appear below.
{"Smiles Code": "O=C(Nc1cccc(F)c1)N1CC=C(c2ncnc3[nH]c4c(c23)CCCCC4)CC1", "Readout Units": "%", "inhibition at 1 µM": -8}
{"Smiles Code": "Cc1c[nH]c2ncnc(C3=CCN(C(=O)Nc4cccc(Oc5cccc(F)c5)c4)CC3)c12", "Readout Units": "%", "inhibition at 1 µM": 35}

Input line: Please state recorded inhibition at 1 µM (tested on ROCK1 (Homo sapiens (Human), UniProt Q13464)) of `COc1ccc(-c2cccc(NC(=O)N3CC=C(c4ncnc5[nH]c6c(c45)CCC6)CC3)c2)cc1`
Output line: 6

Input line: Please state recorded inhibition at 1 µM (tested on ROCK1 (Homo sapiens (Human), UniProt Q13464)) of `O=C(Nc1cccc(N2CCOCC2)c1)N1CC=C(c2ncnc3[nH]c4c(c23)CCC4)CC1`
Output line: 26

Input line: Please state recorded inhibition at 1 µM (tested on ROCK1 (Homo sapiens (Human), UniProt Q13464)) of `O=C(Nc1cccc(F)c1)N1CC=C(c2ncnc3[nH]c4c(c23)CCCC4)CC1`
Output line: 7

Input line: Please state recorded inhibition at 1 µM (tested on ROCK1 (Homo sapiens (Human), UniProt Q13464)) of `Cc1c[nH]c2ncnc(C3=CCN(C(=O)Nc4cccc(Oc5ccccc5)c4)CC3)c12`
Output line: 44

Input line: Please state recorded inhibition at 1 µM (tested on ROCK1 (Homo sapiens (Human), UniProt Q13464)) of `COc1cccc(Oc2cccc(NC(=O)N3CC=C(c4ncnc5[nH]cc(C6CC6)c45)CC3)c2)c1`
Output line: 16

Input line: Please state recorded inhibition at 1 µM (tested on ROCK1 (Homo sapiens (Human), UniProt Q13464)) of `Cc1c[nH]c2ncnc(C3=CCN(C(=O)Nc4cccc(Oc5cccc(Cl)c5)c4)CC3)c12`
Output line: 71

====

- System Name: LIMK2 (Homo sapiens (Human), UniProt P53671)
- Sequence (P53671 whole entry): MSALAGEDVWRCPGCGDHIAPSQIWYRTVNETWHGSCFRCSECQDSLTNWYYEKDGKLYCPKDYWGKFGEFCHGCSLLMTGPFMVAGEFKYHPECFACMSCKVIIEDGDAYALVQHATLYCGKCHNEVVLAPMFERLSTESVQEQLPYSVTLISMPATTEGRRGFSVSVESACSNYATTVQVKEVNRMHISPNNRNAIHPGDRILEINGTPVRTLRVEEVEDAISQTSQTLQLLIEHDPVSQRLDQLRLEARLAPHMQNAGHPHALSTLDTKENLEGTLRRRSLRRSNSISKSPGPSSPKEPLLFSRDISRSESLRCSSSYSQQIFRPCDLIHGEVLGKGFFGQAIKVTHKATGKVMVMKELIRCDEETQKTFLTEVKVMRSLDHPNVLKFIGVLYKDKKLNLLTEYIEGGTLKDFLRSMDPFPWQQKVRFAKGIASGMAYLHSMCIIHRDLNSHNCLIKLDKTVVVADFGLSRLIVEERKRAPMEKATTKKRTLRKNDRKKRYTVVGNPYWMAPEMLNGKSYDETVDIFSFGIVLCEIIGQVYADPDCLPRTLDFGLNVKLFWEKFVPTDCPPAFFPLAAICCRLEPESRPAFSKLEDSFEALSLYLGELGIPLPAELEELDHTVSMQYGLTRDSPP
- Protocol Details: Lanthascreen Eu binding assay (TR-FRET), inhibition of LIMK2
- Condition Label: Lanthascreen Eu binding assay
pKi: −log10 of the molar value.
Each entry gets criterion not met if its pKi stays under 7, and criterion met if its pKi is 7 or above.

{"Smiles Code": "COc1ccc(-c2cccc(NC(=O)N3CC=C(c4ncnc5[nH]c6c(c45)CCC6)CC3)c2)cc1", "Discrete Label": "criterion met"}
{"Smiles Code": "CN(C)Cc1cccc(NC(=O)N2CC=C(c3ncnc4[nH]c5c(c34)CCC5)CC2)c1", "Discrete Label": "criterion not met"}
{"Smiles Code": "Cc1c[nH]c2ncnc(C3=CCN(C(=O)Nc4cccc(Oc5cccc(Cl)c5)c4)CC3)c12", "Discrete Label": "criterion met"}

Input line: Check the entry `CNC(=O)c1cccc(Oc2cccc(NC(=O)N3CC=C(c4ncnc5[nH]cc(C)c45)CC3)c2)c1` : does pKi equal or exceed 7?
Output line: criterion met

====

- System Name: LIMK2 (Homo sapiens (Human))
- Protocol Details: Lanthascreen Eu binding assay (TR-FRET), inhibition of LIMK2
- Condition Label: Lanthascreen Eu binding assay
Assay Readout: log10(Ki) (log10 of the value in µM)
Values are log10 of Ki in µM.

Example entries and their recorded answers appear below.
{"Smiles Code": "O=C(Nc1ccccc1)N1CC=C(c2ncnc3[nH]c4c(c23)CCC4)CC1", "Value Observed": -1.52}
{"Smiles Code": "CN(C)C(=O)c1cccc(NC(=O)N2CC=C(c3ncnc4[nH]c5c(c34)CCC5)CC2)c1", "Value Observed": -1.48}
{"Smiles Code": "CC(=O)Nc1cccc(Oc2cccc(NC(=O)N3CC=C(c4ncnc5[nH]cc(C)c45)CC3)c2)c1", "Value Observed": -2.26}

Input line: I'd like to know its log10(Ki). The compound in question is `Cc1c[nH]c2ncnc(C3=CCN(C(=O)Nc4cccc(OCCCNC(=O)OC(C)(C)C)c4)CC3)c12`
Output line: -1.29

Input line: I'd like to know its log10(Ki). The compound in question is `Cc1c[nH]c2ncnc(C3=CCN(C(=O)Nc4cccc(Oc5cccc(OCc6ccccc6)c5)c4)CC3)c12`
Output line: -0.33

Input line: I'd like to know its log10(Ki). The compound in question is `Cc1c[nH]c2ncnc(C3=CCN(C(=O)Nc4cccc(Oc5ccc(Br)cc5Cl)c4)CC3)c12`
Output line: -0.17

Input line: I'd like to know its log10(Ki). The compound in question is `O=C(Nc1cccc(Oc2ccccc2)c1)N1CC=C(c2ncnc3[nH]cc(C4CC4)c23)CC1`
Output line: -1.96

Input line: I'd like to know its log10(Ki). The compound in question is `N#Cc1cccc(NC(=O)N2CC=C(c3ncnc4[nH]c5c(c34)CCC5)CC2)c1`
Output line: -1.41

====

- System Name: ROCK2 (Homo sapiens (Human), UniProt O75116)
- Sequence (O75116 whole entry): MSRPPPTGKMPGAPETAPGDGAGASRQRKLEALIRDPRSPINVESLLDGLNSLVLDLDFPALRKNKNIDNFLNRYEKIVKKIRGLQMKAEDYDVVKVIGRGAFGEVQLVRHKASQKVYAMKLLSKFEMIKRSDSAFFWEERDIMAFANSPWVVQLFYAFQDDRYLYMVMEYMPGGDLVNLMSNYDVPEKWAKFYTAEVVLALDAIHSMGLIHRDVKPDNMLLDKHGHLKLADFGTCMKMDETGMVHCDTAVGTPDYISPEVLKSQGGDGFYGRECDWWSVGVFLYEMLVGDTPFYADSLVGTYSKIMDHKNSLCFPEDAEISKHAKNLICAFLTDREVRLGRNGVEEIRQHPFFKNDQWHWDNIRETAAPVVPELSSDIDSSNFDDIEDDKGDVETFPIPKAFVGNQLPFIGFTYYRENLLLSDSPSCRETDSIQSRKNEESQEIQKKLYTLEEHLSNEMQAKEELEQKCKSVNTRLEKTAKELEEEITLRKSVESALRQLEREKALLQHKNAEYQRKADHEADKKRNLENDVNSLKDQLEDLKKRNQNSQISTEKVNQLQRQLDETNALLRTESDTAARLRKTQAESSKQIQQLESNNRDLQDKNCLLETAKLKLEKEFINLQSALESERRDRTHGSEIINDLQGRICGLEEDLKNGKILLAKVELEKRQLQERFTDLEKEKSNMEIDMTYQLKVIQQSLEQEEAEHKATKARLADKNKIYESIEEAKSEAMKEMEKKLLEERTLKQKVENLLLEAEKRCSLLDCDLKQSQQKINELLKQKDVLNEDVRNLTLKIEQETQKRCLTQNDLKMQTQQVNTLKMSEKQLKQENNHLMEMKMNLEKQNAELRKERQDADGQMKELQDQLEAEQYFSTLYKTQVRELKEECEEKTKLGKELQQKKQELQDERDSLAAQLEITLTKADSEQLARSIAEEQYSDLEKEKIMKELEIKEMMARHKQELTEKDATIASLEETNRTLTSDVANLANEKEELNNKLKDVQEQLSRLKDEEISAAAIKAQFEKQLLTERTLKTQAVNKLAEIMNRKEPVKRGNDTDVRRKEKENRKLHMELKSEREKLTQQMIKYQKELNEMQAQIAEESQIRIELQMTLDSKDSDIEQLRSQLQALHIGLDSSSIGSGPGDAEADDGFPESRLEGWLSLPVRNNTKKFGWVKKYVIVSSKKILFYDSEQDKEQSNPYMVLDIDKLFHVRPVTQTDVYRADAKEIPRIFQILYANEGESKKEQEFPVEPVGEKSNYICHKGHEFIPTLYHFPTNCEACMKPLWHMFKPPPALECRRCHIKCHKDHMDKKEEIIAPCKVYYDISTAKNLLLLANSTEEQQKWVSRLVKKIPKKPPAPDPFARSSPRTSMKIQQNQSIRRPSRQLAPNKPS
- Protocol Details: Z'Lyte assay, ROCK2 inhibition at a single concentration
- Assay type: biochemical
- Condition Label: read-out: % inhibition (ROCK2) 1 uM, 1 uM
Assay Readout: inhibition at 1 µM
# number then unit; no other words

Example entries and their recorded answers appear below.
{"Molecule": "O=C(Nc1cccc(Oc2ccccc2)c1)N1CC=C(c2ncnc3[nH]cc(C4CC4)c23)CC1 [Compound 79]", "System Name": "ROCK2 (Homo sapiens (Human), UniProt O75116)", "Assay Readout": "inhibition at 1 µM", "Value Observed": "8%"}
{"Molecule": "COCOCc1cccc(NC(=O)N2CC=C(c3ncnc4[nH]c5c(c34)CCC5)CC2)c1 [Compound 135]", "System Name": "ROCK2 (Homo sapiens (Human), UniProt O75116)", "Assay Readout": "inhibition at 1 µM", "Value Observed": "-3%"}

Please find the next molecule below.
Input line: I'd like to know its inhibition at 1 µM. The molecule in question is Cc1c[nH]c2ncnc(C3=CCN(C(=O)Nc4cccc(OCCN5CCN(C)CC5)c4)CC3)c12 [Compound 184]
Output line: 78%

====

- System Name: LIMK1 (Homo sapiens (Human), UniProt P53667)
- Sequence (P53667 whole entry): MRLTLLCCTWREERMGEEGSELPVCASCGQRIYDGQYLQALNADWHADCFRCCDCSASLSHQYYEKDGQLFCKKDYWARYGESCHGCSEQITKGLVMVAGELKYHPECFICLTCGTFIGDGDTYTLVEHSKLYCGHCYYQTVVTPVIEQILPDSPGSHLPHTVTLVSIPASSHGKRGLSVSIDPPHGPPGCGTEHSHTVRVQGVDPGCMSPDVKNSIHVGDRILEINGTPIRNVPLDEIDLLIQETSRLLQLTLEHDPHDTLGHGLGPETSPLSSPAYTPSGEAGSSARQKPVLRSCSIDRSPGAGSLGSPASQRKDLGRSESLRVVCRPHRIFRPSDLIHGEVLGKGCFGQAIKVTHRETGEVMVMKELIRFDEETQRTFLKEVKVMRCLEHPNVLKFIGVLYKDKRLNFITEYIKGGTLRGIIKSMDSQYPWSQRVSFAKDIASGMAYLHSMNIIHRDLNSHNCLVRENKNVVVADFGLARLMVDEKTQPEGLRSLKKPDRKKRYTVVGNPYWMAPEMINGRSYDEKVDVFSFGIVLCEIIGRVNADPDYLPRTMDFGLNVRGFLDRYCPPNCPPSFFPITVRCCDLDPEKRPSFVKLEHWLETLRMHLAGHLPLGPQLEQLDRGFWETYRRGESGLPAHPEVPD
- Protocol Details: Lanthascreen Eu binding assay (TR-FRET), inhibition of LIMK1
- Condition Label: Lanthascreen Eu binding assay
Assay Readout: Ki (nM)
Number in nM, nothing else.

{"Smiles Code": "CC(C)(C)OC(=O)NCCCOc1cccc(-c2cccc(NC(=O)N3CC=C(c4ncnc5[nH]cc(C6CC6)c45)CC3)c2)c1", "Ki (nM)": 169}

Please find the next molecule below.
Input line: I'd like to know its Ki. The molecule in question is `CCc1cccc(NC(=O)N2CC=C(c3ncnc4[nH]c5c(c34)CCC5)CC2)c1`
Output line: 16.6

====

- System Name: UniProtKB P53671
- Protocol Details: Lanthascreen Eu binding assay (TR-FRET), inhibition of LIMK2
Assay Readout: Ki (nM)
Number in nM, nothing else.

{"Smiles Code": "CN1CCc2[nH]c3ncnc(C4=CCN(C(=O)Nc5cccc(Br)c5)CC4)c3c2C1", "Ki [nM]": 1030}
{"Smiles Code": "O=C(Nc1cccc(Br)c1)N1CC=C(c2ncnc3[nH]c4c(c23)CCCCC4)CC1", "Ki [nM]": 40.4}
{"Smiles Code": "O=C(Nc1cccc(Br)c1)N1CC=C(c2ncnc3[nH]c4c(c23)CCC4)CC1", "Ki [nM]": 24}
{"Smiles Code": "O=C(Nc1cccc(Br)c1)N1CC=C(c2ncnc3[nH]c4c(c23)CCCC4)CC1", "Ki [nM]": 16.2}

Please find the next compound below.
Input line: Please state recorded Ki (tested on UniProtKB P53671) of `CC1=CC(C)=[N+]2C1=Cc1ccc(CCC(=O)NCCCOc3cccc(-c4cccc(NC(=O)N5CC=C(c6ncnc7[nH]c8c(c67)CCC8)CC5)c4)c3)n1[B-]2(F)F`
Output line: 113

====

- System Name: ROCK1 (Homo sapiens (Human))
- Protocol Details: Z'Lyte assay, ROCK1 inhibition at a single concentration
- Format: biochemical
- Condition Label: read-out: % inhibition (ROCK1) 1 uM, 1 uM
Each entry gets f if its inhibition at 1 µM stays under 20%, and t if its inhibition at 1 µM is 20% or above.

Input line: Check the entry Cc1c[nH]c2ncnc(C3=CCN(C(=O)Nc4cccc(Oc5cccnc5)c4)CC3)c12 [Compound 208] : does inhibition at 1 µM equal or exceed 20%?
Output line: t

Input line: Check the entry CNC(=O)c1cccc(Oc2cccc(NC(=O)N3CC=C(c4ncnc5[nH]cc(C)c45)CC3)c2)c1 [Compound 222] : does inhibition at 1 µM equal or exceed 20%?
Output line: t

Input line: Check the entry CCc1cccc(NC(=O)N2CC=C(c3ncnc4[nH]c5c(c34)CCC5)CC2)c1 [Compound 129] : does inhibition at 1 µM equal or exceed 20%?
Output line: f

Input line: Check the entry CN(C)Cc1cccc(NC(=O)N2CC=C(c3ncnc4[nH]c5c(c34)CCC5)CC2)c1 [Compound 132] : does inhibition at 1 µM equal or exceed 20%?
Output line: f

Input line: Check the entry CC(=O)Nc1cccc(Oc2cccc(NC(=O)N3CC=C(c4ncnc5[nH]cc(C)c45)CC3)c2)c1 [Compound 219] : does inhibition at 1 µM equal or exceed 20%?
Output line: t

Input line: Check the entry CC(C)(C)OC(=O)NCCCOc1cccc(-c2cccc(NC(=O)N3CC=C(c4ncnc5[nH]c6c(c45)CCC6)CC3)c2)c1 [Compound 164] : does inhibition at 1 µM equal or exceed 20%?
Output line: f

Input line: Check the entry CC(C)(C)OC(=O)NCCCOc1cccc(-c2cccc(NC(=O)N3CC=C(c4ncnc5[nH]cc(C6CC6)c45)CC3)c2)c1 [Compound 165] : does inhibition at 1 µM equal or exceed 20%?
Output line: f
